Test system: RXRa DBDmut IVT, anti-RXR (DBD mutation: RXRa K156A/R161A, NR concentration 90 nM)
Assay: PBM binding z-score (relative to random genomic background probes); higher = stronger binding; sequences stand for … in GC…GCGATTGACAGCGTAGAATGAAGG
Record Fulfilled whenever PBM binding z-score is at 0.2 or higher; record Not fulfilled when lower.

sequenceRecord: CCGCCTAGGTCAGGGCCAGTATAGGAGGAACGTT
group: Not fulfilled
//
sequenceRecord: TTACCAAGGTGAGCGGAGGTCGTTGATCCAACTC
group: Not fulfilled
//
sequenceRecord: ATCTCTAGGTAAAAGTTAAGTGAATCCCGAGGAT
group: Not fulfilled

Quick check, PBM binding z-score >= 0.2? ATCGAAAGGTCGTGCGGTGAGTATACAGAAAGGC
Fulfilled

Quick check, PBM binding z-score >= 0.2? AGTCAAAGTTCAACTAGGTAACGTAAGATATGCT
Fulfilled

Quick check, PBM binding z-score >= 0.2? ATAGACAGGTGATGAAGGTAACTCAGGCTATCAT
Not fulfilled

Quick check, PBM binding z-score >= 0.2? TAGCCTAGGTCATGCCGGCCAGTATAGTGTCGGC
Fulfilled

Quick check, PBM binding z-score >= 0.2? AGTCAAAGTTCACTAGGTAACGTTAGATTCAGCT
Fulfilled

Quick check, PBM binding z-score >= 0.2? CGAACTAGGTCAAGGACATTGAATCTCCGCACGC
Fulfilled

Quick check, PBM binding z-score >= 0.2? CGTCCAAGGTCAGAGCGGTCAGTGAATGCCGAGT
Fulfilled

Quick check, PBM binding z-score >= 0.2? TCATATTGGTAATACAGGTGAAAGTCGGCATCTA
Fulfilled

* * *

Test system: PPARg homodimer (NR concentration 180 nM)
Assay: PBM binding z-score (relative to random genomic background probes); higher = stronger binding; sequences stand for … in GC…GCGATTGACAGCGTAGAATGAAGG
measurementType: PBM binding z-score
Just the number.

Reference set, count: 5
sequenceRecord: AGAATTAGGTTAAGATCAGGGAAACAGAATACAT
PBM binding z-score: 1.72

sequenceRecord: ATCTCTAGGTAAAGATAGTTCAGTGTATGCAAAT
PBM binding z-score: 1.3

sequenceRecord: ATCTCTAGGTCAAGTTCAGTGAAAGATCGATAGA
PBM binding z-score: 2.41

sequenceRecord: GCTCGGAGGACAAGGTTAGAGCTTTGTCCGTAGA
PBM binding z-score: -0.772

sequenceRecord: ACTAGCAGCCCAAGTTTGGGTCACTCAAACAAAG
PBM binding z-score: 0.227

For this sequence ( TCATACAGGTAAAGGTGAAAGTCGAACGATATGA ), measured PBM binding z-score is 0.957

For this sequence ( CCTGCTAGGTCATGGTCAGCTGATCTACAGTATG ), measured PBM binding z-score is 2.39

For this sequence ( CTAGAAAGGTCGGTTGAGGTGAGTATACGGATAA ), measured PBM binding z-score is 1.34

For this sequence ( GGAACGAGGGAAAGTTGATAGCAGAGTTTGATGG ), measured PBM binding z-score is 0.398

For this sequence ( ATAAGTAGGTTAGCTGGGGTCATTCAGACTAGGC ), measured PBM binding z-score is 3.63

For this sequence ( ATATGTAGGTTACATCCGGCTCATTCAGGCTATG ), measured PBM binding z-score is 0.844

For this sequence ( CAAACTGGGTCAAGGTCAAAGTCGGTTTGTGCCA ), measured PBM binding z-score is 4.04

For this sequence ( TAGCCCAGGTCATGGGCCAGTATACCACGCGAAC ), measured PBM binding z-score is 0.53

For this sequence ( CCAGACAAGTGAGAAGGTAACTCAGCCTCGATTA ), measured PBM binding z-score is 1.29

For this sequence ( CGTCAAACTTCAAGGTAACGTAACAGAAAGCAGC ), measured PBM binding z-score is 0.291

For this sequence ( CTTTACGGGTCACTCCAGGTTATAGCATCGGAGT ), measured PBM binding z-score is 2.31

For this sequence ( TGAATGAGTTTAAAGATCAGGGAACGTGGCGTCG ), measured PBM binding z-score is 0.122
